- target_desc: Recombinant STAT3 protein (STAT3(G127-I722)) (Homo sapiens, UniProt P40763)
- Construct: Recombinant STAT3 protein (STAT3(G127-I722))
- Sequence (P40763 127-722): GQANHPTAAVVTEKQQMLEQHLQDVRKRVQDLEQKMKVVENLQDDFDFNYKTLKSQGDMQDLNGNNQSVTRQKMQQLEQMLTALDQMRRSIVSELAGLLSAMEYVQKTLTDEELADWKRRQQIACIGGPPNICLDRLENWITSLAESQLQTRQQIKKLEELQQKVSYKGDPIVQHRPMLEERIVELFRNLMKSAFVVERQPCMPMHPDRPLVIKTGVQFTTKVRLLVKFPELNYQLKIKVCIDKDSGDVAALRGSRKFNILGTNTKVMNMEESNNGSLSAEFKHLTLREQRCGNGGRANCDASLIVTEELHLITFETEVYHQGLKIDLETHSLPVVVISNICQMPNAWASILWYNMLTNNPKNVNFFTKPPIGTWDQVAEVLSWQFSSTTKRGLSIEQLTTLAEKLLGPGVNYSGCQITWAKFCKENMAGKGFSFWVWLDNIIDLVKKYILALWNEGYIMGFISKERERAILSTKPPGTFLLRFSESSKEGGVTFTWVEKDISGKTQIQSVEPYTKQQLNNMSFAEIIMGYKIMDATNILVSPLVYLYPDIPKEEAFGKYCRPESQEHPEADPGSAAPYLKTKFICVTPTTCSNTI
- experimental_protocol: STAT3 Fluorescence Polarization (FP) Assay
- recorded_conditions: STAT3(G127-I722) 25 nM, probe 5-FAM-GpYLPQTV-NH2 2 nM, 45-minute incubation
pIC50: −log10 of the molar value.
Kindly supply the reported pIC50 values for the records listed here.

Look up and state reported pIC50 for CC(=O)N1CC[C@H]2CC[C@@H](C(=O)Nc3ccccc3)N2C(=O)[C@@H](NC(=O)c2cc3cc(C(F)(F)P(=O)(O)O)ccc3s2)C1
5.00 to 6.00

Look up and state reported pIC50 for CC(=O)N1CC[C@H]2CC[C@@H](C(=O)N3CC(C#N)(c4ccccn4)C3)N2C(=O)[C@@H](NC(=O)c2cc3cc(C(F)(F)P(=O)(O)O)ccc3s2)C1
≥ 7.00

Look up and state reported pIC50 for CC(=O)N1CC[C@H]2CC[C@@H](C(=O)N3CCC(OCc4cncs4)C3)N2C(=O)[C@@H](NC(=O)c2cc3cc(C(F)(F)P(=O)(O)O)ccc3s2)C1 (some centres unmarked)
5.00 to 6.00

Look up and state reported pIC50 for CC(=O)N1CC[C@H]2CC[C@@H](C(=O)N(C)c3ccccc3)N2C(=O)[C@@H](NC(=O)/C(C)=C/c2cccc(C(F)(F)P(=O)(O)O)c2)C1
< 5.00

Look up and state reported pIC50 for O=C(N[C@H]1CN(Cc2ccccc2-n2cncn2)CC[C@H]2CC[C@@H](C(=O)N3CC(c4cccnc4)C3)N2C1=O)c1cc2cc(C(F)(F)P(=O)(O)O)ccc2s1
≥ 7.00

Look up and state reported pIC50 for CN(C(=O)[C@@H]1CC[C@@H]2CCN(CC(F)F)C[C@H](NC(=O)c3cc4cc(C(F)(F)P(=O)(O)O)ccc4[nH]3)C(=O)N21)c1ccccc1
5.00 to 6.00

Look up and state reported pIC50 for COc1ccccc1N(C)C(=O)[C@@H]1CC[C@@H]2CCN(C(C)=O)C[C@H](NC(=O)c3cc4cc(C(F)(F)P(=O)(O)O)ccc4[nH]3)C(=O)N21
5.00 to 6.00

Look up and state reported pIC50 for CC(=O)N1CC[C@H]2CC[C@@H](C(=O)Nc3ccc4ncncc4c3)N2C(=O)[C@@H](NC(=O)c2cc3cc(C(F)(F)P(=O)(O)O)ccc3s2)C1
5.00 to 6.00

Look up and state reported pIC50 for CC(=O)N1CC[C@H]2CC[C@@H](C(=O)Nc3ccc4nnccc4c3)N2C(=O)[C@@H](NC(=O)c2cc3cc(C(F)(F)P(=O)(O)O)ccc3s2)C1
6.00 to 7.00

Look up and state reported pIC50 for CC(=O)N1CC[C@H]2CC[C@@H](C(=O)N3C[C@H](c4ccccc4)[C@@H](C#N)C3)N2C(=O)[C@@H](NC(=O)c2cc3cc(C(F)(F)P(=O)(O)O)ccc3s2)C1
5.00 to 6.00

Look up and state reported pIC50 for CC(=O)N1CC[C@H]2CC[C@@H](C(=O)N3C[C@@H](C#N)[C@H](c4ccccc4)C3)N2C(=O)[C@@H](NC(=O)c2cc3cc(C(F)(F)P(=O)(O)O)ccc3s2)C1 (single isomer, unassigned)
5.00 to 6.00
